Target: Kappa-type opioid receptor (Homo sapiens, UniProt P41145)
Sequence (P41145 whole entry): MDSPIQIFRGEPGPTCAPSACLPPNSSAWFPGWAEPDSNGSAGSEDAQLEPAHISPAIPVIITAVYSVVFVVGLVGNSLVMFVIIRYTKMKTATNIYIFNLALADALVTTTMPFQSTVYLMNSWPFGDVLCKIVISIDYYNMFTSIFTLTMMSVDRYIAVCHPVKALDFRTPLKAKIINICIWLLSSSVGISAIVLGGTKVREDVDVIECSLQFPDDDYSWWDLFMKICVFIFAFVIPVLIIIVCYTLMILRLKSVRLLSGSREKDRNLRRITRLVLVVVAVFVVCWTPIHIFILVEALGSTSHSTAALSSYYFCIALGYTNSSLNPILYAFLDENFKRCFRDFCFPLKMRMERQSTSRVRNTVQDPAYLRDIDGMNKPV
Consider the following molecules; for each one, report its pIC50.
Answers are plain numbers, as −log10 of the molar value.

Would you please look over these solved cases?
In [3]: df
Out[3]:
                               smiles_input  experimental_result
0  Cc1cc(O)cc(C)c1C[C@H](N)C(=O)N1Cc2ccccc2C[C@H]1CNC(=O)Nc1ccccc1                 8.32
1  CC(=N)NC[C@@H]1Cc2ccccc2CN1C(=O)[C@@H](N)Cc1c(C)cc(O)cc1C                 6.00
2  Cc1cc(O)cc(C)c1C[C@H](N)C(=O)N1Cc2ccccc2C[C@H]1COCc1ccccc1                 7.19
3  Cc1cc(O)cc(C)c1C[C@H](N)C(=O)N1Cc2ccccc2C[C@H]1CNCc1ccccc1                 8.82
4  COC[C@@H]1Cc2ccccc2CN1C(=O)[C@@H](N)Cc1c(C)cc(O)cc1C                 5.60
5  CC(=O)OC[C@@H]1Cc2ccccc2CN1C(=O)[C@@H](N)Cc1c(C)cc(O)cc1C                 5.51

The following molecules each have a reported value; give each one's pIC50.
1. Cc1cc(O)cc(C)c1C[C@H](N)C(=O)N1Cc2ccccc2C[C@H]1CN(C)C
2. Cc1cc(O)cc(C)c1C[C@H](N)C(=O)N1Cc2ccccc2C[C@H]1CNC(=O)c1ccccc1
3. Cc1cc(O)cc(C)c1C[C@H](N)C(=O)N1Cc2ccccc2C[C@H]1CN=[N+]=[N-]
4. Cc1cc(O)cc(C)c1C[C@H](N)C(=O)N1Cc2ccccc2C[C@H]1CN
5. C=CCOC[C@@H]1Cc2ccccc2CN1C(=O)[C@@H](N)Cc1c(C)cc(O)cc1C
6. Cc1cc(O)cc(C)c1C[C@H](N)C(=O)N1Cc2ccccc2C[C@H]1CNC(=S)NC(C)(C)C
7. CCNC(=O)NC[C@@H]1Cc2ccccc2CN1C(=O)[C@@H](N)Cc1c(C)cc(O)cc1C
8. Cc1cc(O)cc(C)c1C[C@H](N)C(=O)N1Cc2ccccc2C[C@H]1CNC(=O)NC(C)(C)C

[6.10, 6.51, 5.97, 6.28, 5.84, 8.55, 6.49, 8.89]

# batch size: 3; output pIC50 per entry
1. Cc1cc(O)cc(C)c1C[C@H](N)C(=O)N1Cc2ccccc2C[C@H]1CNCC(C)(C)C
2. Cc1cc(O)cc(C)c1C[C@H](N)C(=O)N1Cc2ccccc2C[C@H]1C
3. Cc1cc(O)cc(C)c1C[C@H](N)C(=O)N1Cc2ccccc2C[C@H]1CN=C(N)N

[8.82, 6.12, 6.46]

====

For reference, IC50 measured on Kappa-type opioid receptor (Homo sapiens, UniProt P41145):

Could you tell me IC50 for each of these compounds? They are listed below.
1. Cc1cc(O)cc(C)c1C[C@H](N)C(=O)N1Cc2ccccc2C[C@H]1CNC(=O)NC12CC3CC(CC(C3)C1)C2
2. Cc1cc(O)cc(C)c1C[C@H](N)C(=O)N1Cc2ccccc2C[C@H]1CNC(=S)Nc1ccccc1
3. Cc1cc(O)cc(C)c1C[C@H](N)C(=O)N1Cc2ccccc2C[C@H]1CNC(=O)C(C)(C)C
4. CC(=O)NC[C@@H]1Cc2ccccc2CN1C(=O)[C@@H](N)Cc1c(C)cc(O)cc1C

1. 4.1 nM
2. 51.4 nM
3. 394 nM
4. 9380 nM

Values from ChEMBL document CHEMBL1134689
